- testMethodNotes: soluble on expression in E. coli; label from the status in PepcDB or PDB records

[
  {
    "monomerSequence": "MVIVINYKTYNESIGNRGLEIAKIAEKVSEESGITIGVAPQFVDLRMIVENVNIPVYAQHIDNINPGSHTGHILAEAIKDCGCKGTLINHSEKRMLLADIEAVINKCKNLGLETIVCTNNINTSKAVAALSPDCIAVEPPELIGTGIPVSKANPEVVEGTVRAVKEINKDVKVLCGAGISKGEDVKAALDLGAEGVLLASGVVKAKNVEEAIRELIKFI",
    "soluble on expression in E. coli": "soluble"
  },
  {
    "monomerSequence": "MSEQKRRTIQIAISEDHYEELQKALELLKGTQLPFSTTVEQFVELILSNYVATSNKISSLAKSGFDVASLQQELEKIGNLSGVDDNLKGFLSELLKTSRNGFSNPNKDGKKNDDDNNSSSKS",
    "soluble on expression in E. coli": "soluble"
  }
]

====

- testMethodNotes: soluble on expression in E. coli; label from the status in PepcDB or PDB records

[
  {
    "monomerSequence": "DLKILDPIWTTAYITRNHGYMVYDTLFSLDAQGNIQPQMVDTVTTSEDGLMVTMTLRDGLVWHDGAPVTAADCVASINRWGSKDAMGQKMMSFVESLEATDDKTITFKLSTPTGLVTLALAKPSSNVPFMMPERVASTPSSEQIADYTGSGPFVFRQ",
    "soluble on expression in E. coli": "not soluble"
  },
  {
    "monomerSequence": "YVLAVTACPTGIAHTYMARDALKKQAEKMNIKIKVETNGSSGIKNHLTEQDIERATGIIVAADVHVETDRFDGKNVVEVPVADGIKRPEELINTALDTNRKPF",
    "soluble on expression in E. coli": "not soluble"
  },
  {
    "monomerSequence": "EDPSLDRPFISEGTTLKDLIYDMTTSGSGSGLPLLVQRTIARTIVLQESIGKGRFGEVWRGKWRGEEVAVKIFSSREERSWFREAEIYQTVMLRHENILGFIAADNKDNGTWTQLWLVSDYHEHGSLFDYLNRYTVTVEGMIKLALSTASGLAHLHMEIVGTQGKPAIAHRDLKSKNILVKKNGTCCIADLGLAVRHDSATDTIDIAPNHRVGTKRYMAPEVLDDSINMKHFESFKRADIYAMGLVFWEIARRCSIGGIHEDYQLPYYDLVPSDPSVEEMRKVVCEQKLRPNIPNRWQSCEALRVMAKIMRECWYANGAARLTALRIKKTLSQLSQQEGIKM",
    "soluble on expression in E. coli": "soluble"
  },
  {
    "monomerSequence": "MACLTDLVNLNLSDTTEKIIAEYIWIGGSGMDLRSKARTLPGPVTDPSKLPKWNYDGSSTGQAPGEDSEVILYPQAIFKDPFRRGNNILVMCDCYTPAGEPIPTNKRYSAAKIFSSPEVAAEEPWYGIEQEYTLLQKDTNWPLGWPIGGFPGPQGPYYCGIGAEKSFGRDIVDAHYKACLYAGINISGINGEVMPGQWEFQVGPSVGISSGDQVWVARYILERITEIAGVVVTFDPKPIPGDWNGAGAHTNYSTESMRKEGGYEVIKAAIEKLKLRHKEHIAAYGEGNERRLTGRHETADINTFSWGVANRGASVRVGRETEQNGKGYFEDRRPASNMDPYVVTSMIAETTIVWKP",
    "soluble on expression in E. coli": "soluble"
  }
]

====

- testMethodNotes: soluble on expression in E. coli; label from the status in PepcDB or PDB records
readoutLabel: soluble on expression in E. coli

Example results:
[
  {
    "monomerSequence": "CHQDCPQMSPQPEMDRFASEFGEQDVAVDGQAPENALENDEPKYAPQVISEQNAFLMREMMYSNIWGGGNWREGTGWNGTGWRAQKLERRDIGGKTGTTNDSKDA",
    "readoutValue": "not soluble"
  },
  {
    "monomerSequence": "MSQIIIKTPQEIEKMRVAGRLAAEVLEMITPFVKEGVTTAELDKICHEYIVKEQDAYPAPLNYHGFPKSICASINHVVCHGIPADKKLKNGDILNIDITVKKDGYHGDTSKMFMIGEPSVMAKKLVEVTHECLWKGIEVVKPGNHFGDIGAAIEKHAKKFGYSIVDAFCGHGIGANFHEPPHVMHHGKAGTGAMFEEGMIFTIEPMINIGKRAVSVLKDGWTAVTKDRSLSAQWEHTILVTKDGYEVLTLREEEKN",
    "readoutValue": "not soluble"
  },
  {
    "monomerSequence": "MGSDKIHHHHHHMKILFGPVSSRRFGRSLGIDLSPSKKQCNFDCVYCELDPKKAQEKQDEIISIDKIISEVKAMLEKNVEFDFLTLTANGEPSLYPYLNELILSLRSIAKDKKLLILSNGTAVLDEDKFNALLKLDVVKFSLDSAVAKTFYRIDRALKNIDLEKMIEKMADFRARFNGDLIMEILVVKDLNDNEEEFEALNQALKKIMPLRVDLSTIDRPPAYAVKKVSEEKLLELSKLIDSTPVLLAKRHYEGEKLSFNEEELLKMLHLRSQSEIDIEVKFDEQSKTLLNQLIKEKKVKILDLAGVKFYKV",
    "readoutValue": "not soluble"
  },
  {
    "monomerSequence": "GTDGTKPECTLCGVKYSARLSIRDHIFSKQHISKVRETVGSQLDREKD",
    "readoutValue": "soluble"
  },
  {
    "monomerSequence": "TRELEDAQAMTEGERRKLASVIAYMTDGVIATNRNGAIILLNSPALELLNVSRETALEMPITSLLGLQENYTFEDLVEQQDSMLLEIERDDELTVLRVNFSVIQREHGKIDGLIAVIYDVT",
    "readoutValue": "not soluble"
  }
]

For every item below, please supply its soluble on expression in E. coli.
1. GSHMAARRGALIVLEGVDGAGKSTQSRKLVEALCAAGHRAELLRFPERSTEIGKLLSSYLQKKSDVEDHSVHLLFSANRWEQVPLIKEKLSQGVTLVVDRYAFSGVAFTGAKENFSLDWCKQPDVGLPKPDLVLFLQLQLADAAKRGRARGELERYENGAFQERALRCFHQLMKDTTLNWKMVDASKSIEAVHEDIRVLSEDAIATATEKPLGELWK
2. MGSDKIHHHHHHMSEENKIGTYQFVAEPFHVDFNGRLTMGVLGNHLLNCAGFHASDRGFGIATLNEDNYTWVLSRLAIELDEMPYQYEKFSVQTWVENVYRLFTDRNFAVIDKDGKKIGYARSVWAMINLNTRKPADLLALHGGSIVDYICDEPCPIEKPSRIKVTSNQPVATLTAKYSDIDINGHVNSIRYIEHILDLFPIELYQTKRIRRFEMAYVAESYFGDELSFFCDEVSENEFHVEVKKNGSEVVCRSKVIFE
3. MVQNNDVDGAFGLLNRLMDSEGMLKIIRRTQFYQKPYMQRKTLSMEASTAIFNEDMNRKMKFLVRKNRPDKHPGQVTS

(A)
soluble
not soluble
not soluble

(Q) Data request, read-out soluble on expression in E. coli, for MPLRQKRLYWPLFFRDDLIMEKNKLQLEYVFDRVSTRSLWRYLSTPDGLSEWFAYDVRLEDNGDFYFQWDKNSGEKASVLEQREGERIRFQWHREQDQNACFEFVIHHSELTGGKSLEVIDYIAPEEVADMEHFWNNLISRLRLSLGAPE
(A) not soluble

====

- testMethodNotes: soluble on expression in E. coli; label from the status in PepcDB or PDB records

[
  {
    "monomerSequence": "MDTSLIRELAELALAGSGQHCHEEALCIAEWLERLGQDEAARLIRISSLANQGRYQEALAFAHGNPWPALEPWFALCEWHLGLGAALDRRLAGLGGSSDPALADFAAGMRAQVRT",
    "soluble on expression in E. coli": "soluble"
  },
  {
    "monomerSequence": "GSHMASMTGGQQMGRGSMKFSFELAVNTKKEDAWTYYSQVNQWFVWEGDLEQISLEGEFTTGQKGKMKMEDMPELAFTLVEVRENQCFSDLTATPFGNVLFEHEILENPDGTISLRHSVSLTDSDTTEEALAFLKQIFADVPESVGKLKQILETV",
    "soluble on expression in E. coli": "soluble"
  },
  {
    "monomerSequence": "MLKSVLGKFSVGDKMIEVTFLGAGGGRFVTITQVRSTGGFFIKASKNIFVDPGPGALIRMIRYKLDPRKIDVLFISHRHTDHCNDAEVIVEGMTYGVTKRRGILIGSRSVVHGDDAHTPALSKYHLEALEEVHAPNPGDRFKLGNEDMVITPSVHSDPTTIGFRLKTNFGDISYIADTEYFEGLEEWHDGTRVLIASVTRPRDMKIPYHLSTDDVVYMLKKMKEKPEVLIMTHLGMKMHFAGPYKEAEYIQNVTGVKTYVAKEGFRITIGKEIHVKTLRPVRFVLEHHHHHH",
    "soluble on expression in E. coli": "soluble"
  }
]

Data origin, for the record: the DeepSol protein solubility set
